measuredOn: Polyunsaturated fatty acid lipoxygenase ALOX12 (Homo sapiens)
Sequence (P18054 whole entry): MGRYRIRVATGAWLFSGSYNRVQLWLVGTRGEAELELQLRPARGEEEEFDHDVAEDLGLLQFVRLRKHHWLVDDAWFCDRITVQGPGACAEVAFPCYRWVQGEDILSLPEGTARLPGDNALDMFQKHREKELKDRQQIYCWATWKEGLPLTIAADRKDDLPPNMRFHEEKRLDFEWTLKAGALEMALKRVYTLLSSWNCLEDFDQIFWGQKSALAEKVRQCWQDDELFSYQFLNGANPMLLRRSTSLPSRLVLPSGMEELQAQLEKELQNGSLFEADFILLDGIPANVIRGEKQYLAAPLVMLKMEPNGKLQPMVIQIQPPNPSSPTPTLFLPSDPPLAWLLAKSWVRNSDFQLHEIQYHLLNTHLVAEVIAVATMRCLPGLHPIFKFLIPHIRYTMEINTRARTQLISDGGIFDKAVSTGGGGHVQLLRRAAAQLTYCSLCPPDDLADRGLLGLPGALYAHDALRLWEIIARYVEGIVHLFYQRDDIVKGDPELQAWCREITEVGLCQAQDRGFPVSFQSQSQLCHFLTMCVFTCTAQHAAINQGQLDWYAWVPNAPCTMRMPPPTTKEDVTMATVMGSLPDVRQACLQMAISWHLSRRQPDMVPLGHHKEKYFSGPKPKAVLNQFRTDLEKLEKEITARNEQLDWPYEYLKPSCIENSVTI
endpointName: pIC50
# pIC50 is unitless: minus log10 of the molar concentration; print number only

Entry O=C1CCN(c2ccccc2)N1 has what pIC50?
7.00

###

measuredOn: Polyunsaturated fatty acid 5-lipoxygenase (Rattus norvegicus)
Sequence (P12527 whole entry): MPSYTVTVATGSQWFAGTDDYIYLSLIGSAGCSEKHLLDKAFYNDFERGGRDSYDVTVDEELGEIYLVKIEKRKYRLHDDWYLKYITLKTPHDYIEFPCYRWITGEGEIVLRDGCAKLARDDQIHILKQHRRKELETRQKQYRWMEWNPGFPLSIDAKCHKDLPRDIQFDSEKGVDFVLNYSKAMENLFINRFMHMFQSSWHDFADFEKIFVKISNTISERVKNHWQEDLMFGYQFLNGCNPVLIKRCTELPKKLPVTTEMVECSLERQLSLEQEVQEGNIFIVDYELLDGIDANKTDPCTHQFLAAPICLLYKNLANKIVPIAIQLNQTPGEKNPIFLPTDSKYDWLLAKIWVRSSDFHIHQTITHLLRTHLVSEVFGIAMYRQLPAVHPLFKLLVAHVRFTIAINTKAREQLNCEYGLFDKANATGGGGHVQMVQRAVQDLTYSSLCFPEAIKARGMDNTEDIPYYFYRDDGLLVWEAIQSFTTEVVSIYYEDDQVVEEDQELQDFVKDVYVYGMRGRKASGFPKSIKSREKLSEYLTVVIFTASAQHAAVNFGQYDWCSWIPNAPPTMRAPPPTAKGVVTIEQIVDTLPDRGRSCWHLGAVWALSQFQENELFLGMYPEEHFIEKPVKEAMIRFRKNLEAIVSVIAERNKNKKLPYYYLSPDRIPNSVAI
assayName: Inhibitory activity against intact rat PMNL, LTB4 5-lipoxygenase was evaluated
endpointName: pIC50
# pIC50 is unitless: minus log10 of the molar concentration; print number only

Entry O=C1CCCN(c2ccccc2)N1 has what pIC50?
5.92

###

assayName: Half-life upon intravenous administration was tested
Type: ADME, organism-based
conditionNotes: in vivo
endpointName: half-life (h)
Reply with just the number (in h).

Entry O=C1CCCN(c2ccccc2)N1 has what half-life?
1.1
